Give MIC for every item shown.
system: E. coli clinical isolates; assay: Microdilution broth MIC, E. coli clinical isolates (Table 1); type: cell-based; details: Escherichia coli, E. coli LC77; TEM, KPC; read-out: MIC

Ask: Name the reported MIC value associated with the compound CC(C)(O/N=C(\C(=O)N[C@@H]1C(=O)N2C(C(=O)[O-])=C(C[n+]3ccccc3)CS[C@H]12)c1csc(N)n1)C(=O)O [Ceftazidime]
Result: 16 µg/mL

Ask: Name the reported MIC value associated with the compound CC(C)(O/N=C(\C(=O)N[C@H]1CN2CC(C(=O)NCCN3C(=O)c4cc(O)c(O)cc4C3=O)=C(C(=O)O)N2C1=O)c1csc(N)n1)C(=O)O [Compound 26]
Result: 0.5 µg/mL

Ask: Name the reported MIC value associated with the compound CC1(C)S[C@@H]2[C@H](NC(=O)[C@H](N)c3ccccc3)C(=O)N2[C@H]1C(=O)O [Ampicillin]
Result: 2050 µg/mL

Ask: Name the reported MIC value associated with the compound C[C@@H](O)[C@H]1C(=O)N2C(C(=O)O)=C(SCCN=CN)C[C@H]12 [Imipenem]
Result: 2 µg/mL

Attribution: patent US11746111B2
